The values you see were collected from patent US10774052B2.

# Test system: pFGFR4 in MDA-MB-453 cells
# assay.comment: FGFR4 signaling, pFGFR4 (MDA); Western blot (Method A), MSD (Method B), ELISA (Method C)
# Assay type: cell-based
# experimental.parameters: Homo sapiens, MDA-MB-453, MDA-MB-453 cells; Method B (MSD) for signaling EC50 determination
// EC50 lookup, one value per entry

compound	quantity.name	recorded.measurement
C=CC(=O)Nc1ccccc1Nc1ncc2c(n1)N(C)C(=O)N(c1ccccc1)C2 [Compound I-38]	EC50	> 1000 nM
C=CC(=O)NC1CCCCC1Nc1ncc2c(n1)N(C1CC1)C(=O)N(c1c(Cl)c(OC)cc(OC)c1Cl)C2 (racemic) [Compound I-68]	EC50	101 to 500 nM
C=CC(=O)NC1CN(C)CC1Nc1ncc2c(n1)N(C)C(=O)N(c1c(Cl)c(OC)cc(OC)c1Cl)C2 (racemic) [Compound I-138]	EC50	101 to 500 nM

Now consider a different compound.
QUERY: Given the entry C=CC(=O)NC1CCCCC1Nc1ncc2c(n1)N(C)C(=O)N(c1cc(OC)cc(OC)c1Cl)C2 (racemic) [Compound I-76] , report its measured EC50.
RESULT: 501 to 999 nM
